# systemUnderTest: Prostaglandin E2 receptor EP2 subtype (Homo sapiens) (UniProt P43116)
# Sequence (P43116 whole entry, looked up): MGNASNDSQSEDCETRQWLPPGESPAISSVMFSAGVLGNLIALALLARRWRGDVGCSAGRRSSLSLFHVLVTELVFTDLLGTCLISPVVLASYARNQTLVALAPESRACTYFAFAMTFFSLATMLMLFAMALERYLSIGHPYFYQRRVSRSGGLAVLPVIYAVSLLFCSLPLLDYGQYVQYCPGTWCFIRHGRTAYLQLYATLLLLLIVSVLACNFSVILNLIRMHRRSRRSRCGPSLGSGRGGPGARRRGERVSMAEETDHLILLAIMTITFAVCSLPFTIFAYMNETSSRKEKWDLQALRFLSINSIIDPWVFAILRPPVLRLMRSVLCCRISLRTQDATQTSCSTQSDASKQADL
# test: compounds shifting PGE2 potency at EP2 – cell-based, human EP2, PGE2 EC50 shift, dose response (AID 1421)
# reportedConditions: EP2-expressing cells, PGE2 EC50 shift by compound; at 20 µM
Hit rate of the full screen: of about 1,300 compounds, about 140 (11%) were called active. Only a sample is shown. Results with a measured potency or affinity are listed apart.
Provide the recorded PGE2 EC50 with compound for the entries that follow.

>>> print(df.to_string())
                                   compound            reported
0           COC(=O)c1cc2occc2n1Cc1cccc(C)c1  0.36 nM (inactive)
1      Cc1cccc(OCc2n[nH]c(=S)n2Cc2ccccc2)c1  0.47 nM (inactive)
2  COc1ccccc1C(CC(=O)c1ccccc1)CC(=O)c1ccccc1  0.61 nM (inactive)
3   CCOC(=O)c1c(NC(=O)c2ccc(Br)o2)sc(C)c1CC  0.27 nM (inactive)
4  CCOC(=O)c1c(/N=C/C2C(=O)CCCC2=O)sc2c1CCCC2  0.36 nM (inactive)
5      COC(=O)c1c(NC(=O)Cc2cccs2)sc2c1CCCC2  0.49 nM (inactive)
6  CCCCCn1c(CN2CCN(c3cc(Cl)ccc3C)CC2)nc2c1c(=O)[nH]c(=O)n2C  1.94 nM (inactive)
7  CCCC(=O)Nc1ccccc1Sc1ncnc2scc(-c3ccccc3)c12  0.74 nM (inactive)
8  CCOC(=O)c1c(NC(=O)c2cccs2)sc2c1CCN(C(=O)OCC)C2  0.43 nM (inactive)
9    COC(=O)c1c(NC(=O)c2ccc(Br)s2)sc2c1CCC2  0.42 nM (inactive)

Here is the next item to consider.
Prompt line: Given the entry CCc1ccccc1NC(=S)N(Cc1ccco1)C(C)c1cccs1 (stereo unspecified) , report its measured PGE2 EC50 with compound.
Response line: 0.38 nM (inactive)

Origin of the recorded values: PubChem BioAssay AID1421
